measurement.target: Protein-arginine deiminase type-4 (Homo sapiens) (UniProt Q9UM07)
Sequence (Q9UM07 whole entry, looked up): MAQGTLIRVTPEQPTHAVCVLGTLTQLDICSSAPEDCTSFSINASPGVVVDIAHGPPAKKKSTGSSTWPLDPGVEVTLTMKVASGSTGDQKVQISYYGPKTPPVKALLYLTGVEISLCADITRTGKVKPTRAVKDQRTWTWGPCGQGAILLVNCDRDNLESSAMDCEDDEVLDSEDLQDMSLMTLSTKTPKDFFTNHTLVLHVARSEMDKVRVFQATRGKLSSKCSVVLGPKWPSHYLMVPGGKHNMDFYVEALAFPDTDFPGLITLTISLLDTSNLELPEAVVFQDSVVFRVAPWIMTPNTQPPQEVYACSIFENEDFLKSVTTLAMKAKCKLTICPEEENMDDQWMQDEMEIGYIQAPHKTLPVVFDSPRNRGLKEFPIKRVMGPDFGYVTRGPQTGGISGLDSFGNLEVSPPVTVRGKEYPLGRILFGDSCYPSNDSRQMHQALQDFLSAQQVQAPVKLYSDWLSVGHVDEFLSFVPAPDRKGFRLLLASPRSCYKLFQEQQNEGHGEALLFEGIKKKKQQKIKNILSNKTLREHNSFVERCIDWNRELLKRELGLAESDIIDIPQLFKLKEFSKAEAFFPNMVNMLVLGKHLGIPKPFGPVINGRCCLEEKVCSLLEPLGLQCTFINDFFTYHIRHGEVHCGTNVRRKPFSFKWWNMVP
test.description: blockers of protein arginine deiminase 4 – biochemical, fluorescence polarization, primary screen (AID 463073);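 note: 0% = PAD4 with DMSO and 100% = wells lacking PAD4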
test.context: recombinant PAD4, RFA probe fluorescence polarization; at 5 µM; active compounds read high
In all, about 2,000 compounds went through this assay and about 10 (0.5%) were called active. Only a selection was taken, and actives are over-represented in it overall. Residues, ends and D or L forms follow the SMILES beside them.
measure: inhibition

Q: Request body: readout inhibition, system Protein-arginine deiminase type-4 (Homo sapiens) (UniProt Q9UM07), query COC(=O)[C@@H](N)CS . Return the value.
A: 2.39% (inactive)

Q: Record CCOC(=O)c1ccc2[nH]c(C)c(CCC(C)=O)c(=O)c2c1 : what is its inhibition with Protein-arginine deiminase type-4 (Homo sapiens) (UniProt Q9UM07)?
A: -4.46% (inactive)

Q: Please tell me: inhibition of O=c1oc2c(CN3CCCCC3)c(O)ccc2c2c1CCCCC2 , system Protein-arginine deiminase type-4 (Homo sapiens) (UniProt Q9UM07)?
A: -1.21% (inactive)

Q: Recorded inhibition for CCOc1cccc(N2C(=O)CC(N(CCc3ccc(OC)c(OC)c3)C(=O)CC)C2=O)c1 (configuration not stated) with Protein-arginine deiminase type-4 (Homo sapiens) (UniProt Q9UM07), please?
A: 4.11% (inactive)

Q: Query for Protein-arginine deiminase type-4 (Homo sapiens) (UniProt Q9UM07): what inhibition does the record show for CC(=O)[C@@]1(O)CC[C@H]2[C@@H]3C[C@H](C)C4=CC(=O)C=C[C@]4(C)[C@@]3(F)[C@@H](O)C[C@@]21C ?
A: -5.68% (inactive)

Q: So what inhibition did C=CCc1cccc2cc(C(=O)Nc3ccc(CC(=O)O)cc3)c(=O)oc12 get with Protein-arginine deiminase type-4 (Homo sapiens) (UniProt Q9UM07)?
A: -4.46% (inactive)

Q: Form entry - test system: Protein-arginine deiminase type-4 (Homo sapiens) (UniProt Q9UM07); read-out: inhibition; compound: Cc1c(O)c(=O)ccn1C
A: 4.09% (inactive)

Q: Param readout= inhibition; system= Protein-arginine deiminase type-4 (Homo sapiens) (UniProt Q9UM07); entry= COc1ccc(C(=O)Nc2nc3ccccc3c(=O)[nH]2)cc1 ; returns value.
A: 0.21% (inactive)

Q: Query the reported inhibition for Protein-arginine deiminase type-4 (Homo sapiens) (UniProt Q9UM07); item: Cn1nc(-c2ccccn2)nc2c(=O)n(C)c(=O)nc1-2
A: 98.2% (active)

Q: Item: COC(=O)c1[nH]c(=O)c2ccccc2c1O Test system: Protein-arginine deiminase type-4 (Homo sapiens) (UniProt Q9UM07) Read-out: inhibition Value: ?
A: 66.5% (active)

Q: Request body: readout inhibition, system Protein-arginine deiminase type-4 (Homo sapiens) (UniProt Q9UM07), query CC(NC(=O)OCc1ccccc1)C(=O)N1CC(O)CC1C(=O)O (configuration not stated) . Return the value.
A: 6.64% (inactive)

Q: API: value(readout= inhibition, system= Protein-arginine deiminase type-4 (Homo sapiens) (UniProt Q9UM07), query= CC(=O)NC(CC(C)C)C(=O)NC(Cc1ccccc1)C(N)=O (stereo not drawn) (Ac-Leu-Phe-NH2; configuration not given here) )
A: 1.27% (inactive)

Q: Form field - read-out: inhibition; system: Protein-arginine deiminase type-4 (Homo sapiens) (UniProt Q9UM07); submitted item: Cc1cc(C)c(NC(=O)NC(=O)C(Cl)(Cl)Cl)c(C)c1
A: -2.27% (inactive)

Q: Provide the documented inhibition with Protein-arginine deiminase type-4 (Homo sapiens) (UniProt Q9UM07) as the system for O=P(c1ccccc1)(c1ccccc1)c1nc(-c2ccc(Cl)cc2)oc1N1CCOCC1
A: 4.58% (inactive)

Q: Quick check: inhibition on Protein-arginine deiminase type-4 (Homo sapiens) (UniProt Q9UM07), item O=C(O)c1cnccn1 ?
A: 1.59% (inactive)

Q: Lab request: please report inhibition under test system Protein-arginine deiminase type-4 (Homo sapiens) (UniProt Q9UM07) for Cn1c(=O)c2c(nc(SCCN3CCCCC3)n2C)n(C)c1=O
A: 4.29% (inactive)

Q: Identify the measured inhibition of CCOC(=O)C1C(=O)CC(C)(O)C(C(=O)OCC)C1/C=C/c1ccccc1 (configuration not stated) for Protein-arginine deiminase type-4 (Homo sapiens) (UniProt Q9UM07).
A: 0.16% (inactive)

Q: Query for Protein-arginine deiminase type-4 (Homo sapiens) (UniProt Q9UM07): what inhibition does the record show for O=C(CCc1ccccc1)Nc1ccccc1C(F)(F)F ?
A: -2.28% (inactive)

Q: Which inhibition is reported with Protein-arginine deiminase type-4 (Homo sapiens) (UniProt Q9UM07) for this entry: COc1ccc(N2C(=O)[C@@H]3[C@H](C2=O)[C@H]2c4ccccc4C=CN2[C@@H]3C(C)=O)cc1 ?
A: 37.2% (active)

Q: Could you share what inhibition was measured for c1ccc(-c2ccccn2)nc1 , tested on Protein-arginine deiminase type-4 (Homo sapiens) (UniProt Q9UM07)?
A: 0.78% (inactive)

Q: Which measured inhibition belongs to CC[n+]1c(C)sc2cc(C)ccc21 , tested on Protein-arginine deiminase type-4 (Homo sapiens) (UniProt Q9UM07)?
A: 0.78% (inactive)

Q: Give inhibition (Protein-arginine deiminase type-4 (Homo sapiens) (UniProt Q9UM07)) of the following compound: COc1ccc2[nH]cc(C(=O)CCl)c2c1
A: 2.86% (inactive)
